# Assay System: human insulin-like growth factor-II (IGF-II) (human, UniProt P01344 25-91)
# Assay Remarks: cell-based or functional assay
Form field: Max % Inhibition (133.3 nM), n = 2, IGF-II pTYR, BxPC3 cells (one value per entry).
The figure you give is taken to be in %; do not add the unit.

>>> reading("mAb 7.159.2 (antibody, V domains shown, Fully human XenoMouse hybridoma mAb, lambda light chain (V1-19/JL2); Sister clones 7.159.1 and 7.159.2 are said to be identical; also called 7.159.1; 7_159_1) VH: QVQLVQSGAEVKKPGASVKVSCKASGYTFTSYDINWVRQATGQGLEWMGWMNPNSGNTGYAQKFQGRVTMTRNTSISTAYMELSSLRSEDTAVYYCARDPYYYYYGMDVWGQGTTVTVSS VL: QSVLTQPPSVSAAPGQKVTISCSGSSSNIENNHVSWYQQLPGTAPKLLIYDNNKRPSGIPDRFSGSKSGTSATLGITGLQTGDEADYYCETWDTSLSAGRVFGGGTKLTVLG")
91.2
>>> reading("mAb 7.251.3 (antibody, V domains shown, Fully human XenoMouse hybridoma mAb, lambda light chain (V1-13/JL2); also called ATCC PTA-7422) VH: QVQLQESGPGLVKPSETLSLTCTVSGGSISSYYWSWIRQPPGKGLEWIGYFFYSGYTNYNPSLKSRVTISVDTSKNQFSLKLSSVTAADTAVYYCACITGTTKGGMDVWGQGTTVTVSS VL: QSVLTQPPSVSGAPGQRVTISCTGSSSNIGAGYDVHWYQQLPGTAPKLLIYGNNNRPSGVPDRFSGSKSGTSASLAITGLQADDEADYYCQSFDSSLSGSVFGGGTKLTVLG")
91.3

**Query** Please look at this binder and report its Max % Inhibition (133.3 nM), n = 2, IGF-II pTYR, BxPC3 cells: mAb 7.158.2 (antibody, V domains shown, Kappa light chain (L5/JK3); also called 7.158.1; 7_158_1) VH: QLQLQESGPGLVKPSETLSLTCTVSGGSIRSSSYYWGWIRQPPGKGLEWIGGIYYSGSTYYNPSLKSRVTMSVDTSKNQFSLKLSSVTAADTAVYYCARQRGHSSGWWYFDLWGRGTLVTVSS VL: DIQMTQSPSSVSASVGDSVTITCRASQGISSYLAWYQQKPGKAPKLLIYAASSLQSGVPSRFSGNGSGTDFTLTISSLQPEDFATYYCQQANNFPFTFGPGTKVDIKR
**Result** 74
